%Inh values for the compounds below.
Tested on: TLK1;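 further: KINOMEscan kinase panel screen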
Conditions: concentration: 1 μM, replicates: in singlicate; n = 1
The figure you give is taken to be in %; do not add the unit.

Worked examples, 8 compounds total:
{"compound string": "Nc1nc(-c2ccccc2F)c(-c2ccnc3ccccc23)s1", "measurement name": "%Inh", "recorded measurement": 0}
{"compound string": "Nc1ncnc2c1ncn2-c1cccc2ccccc12", "measurement name": "%Inh", "recorded measurement": 0}
{"compound string": "Nc1nc(N)c2nc(-c3ccccc3)[nH]c2n1", "measurement name": "%Inh", "recorded measurement": 0}
{"compound string": "Cc1ccc(-c2ccc3c(ccc4sc5c(c43)NC[C@@H](C)N=C5N(C)C)n2)cn1", "measurement name": "%Inh", "recorded measurement": 0}
{"compound string": "COC(=O)c1c(-c2ccccc2)c2cc(Br)ccc2c(=O)n1Cc1ccc(NC(=O)CCC(=O)O)cc1", "measurement name": "%Inh", "recorded measurement": 19}
{"compound string": "COc1cccc(C2=C(Nc3cccc(C(=O)O)c3)C(=O)NC2=O)c1", "measurement name": "%Inh", "recorded measurement": 7}
{"compound string": "O=C1NC(=O)C(c2ccccc2)=C1Nc1cccc(O)c1", "measurement name": "%Inh", "recorded measurement": 26}
{"compound string": "COc1cc2ncn(-c3cc(OCc4ccc(S(C)(=O)=O)cc4)c(C(N)=O)s3)c2cc1OC", "measurement name": "%Inh", "recorded measurement": 5}

Please find the next compound below.
Kindly note the recorded %Inh for O=c1cc(N2CCOCC2)nc2n(Cc3ccc(F)c(Cl)c3)ccn12 , which is 11
